Recorded Activity values for a group of compounds are listed next.
test system: Rattus norvegicus; assay: Effect on organ weight in male wistar rat assessed testis tissue weight per 100g at 5ml/kg, po qd measured on 15th day after 24 hrs of last dose (Rvb=1054.099+/- 55.648 mg/100g); format: ADME, organism-based; conditions: in vivo
All answers are understood in mg, so give the number only.

Some solved cases for reference:
{"SMILES INPUT": "C[C@]12CCC(c3nnn[nH]3)=CC1=CC[C@@H]1[C@@H]2CC[C@]2(C)NC(=O)CC[C@@H]12", "TARGET SYSTEM": "Rattus norvegicus", "UNITS": "mg", "Activity": 1152.287}
{"SMILES INPUT": "C=CCN1C(=O)CC[C@H]2[C@@H]3CC=C4C=C(c5nnn[nH]5)CC[C@]4(C)[C@H]3CC[C@@]21C", "TARGET SYSTEM": "Rattus norvegicus", "UNITS": "mg", "Activity": 1318.403}

Next item in the queue.
Entry C[C@]12CCC(c3nnn[nH]3)=CC1=CC[C@@H]1[C@@H]2CC[C@]2(C)C(=O)CC[C@@H]12 — recorded Activity = 1090.046

----------
Recorded inhibition values for a group of molecules are listed next.
target: 3-oxo-5-alpha-steroid 4-dehydrogenase 2 (Homo sapiens) (UniProt P31213); assay: Inhibition of human 5alpha-2 reductase expressed in HEK293 cells assessed as suppression of conversion of [3]androstenedione at 2 uM incubated for 30 mins by radioactivity-based HPLC analysis; type: cell-based
Sequence (P31213 whole entry): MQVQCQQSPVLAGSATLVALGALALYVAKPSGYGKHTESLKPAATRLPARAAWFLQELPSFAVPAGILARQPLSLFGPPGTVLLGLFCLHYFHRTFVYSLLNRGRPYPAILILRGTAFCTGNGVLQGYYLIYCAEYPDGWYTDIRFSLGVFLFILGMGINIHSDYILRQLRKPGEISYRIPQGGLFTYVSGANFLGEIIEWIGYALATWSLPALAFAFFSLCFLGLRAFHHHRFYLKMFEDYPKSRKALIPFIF
Show the value, then the unit it is measured in.

Some solved cases for reference:
{"MOLECULE": "C[C@]12CC[C@H]3[C@@H](CC=C4C=C(c5nnn[nH]5)CC[C@@H]43)[C@@H]1CCC2=O", "inhibition": "60.6%"}
{"MOLECULE": "C=CCN1C(=O)CC[C@H]2[C@@H]3CC=C4C=C(c5nnn[nH]5)CC[C@]4(C)[C@H]3CC[C@@]21C", "inhibition": "94.7%"}
{"MOLECULE": "C[C@]12CCC(c3nnn[nH]3)=CC1=CC[C@@H]1[C@@H]2CC[C@]2(C)C(=O)CC[C@@H]12", "inhibition": "100%"}
{"MOLECULE": "CN1C(=O)CC[C@H]2[C@@H]3CC=C4C=C(c5nnn[nH]5)CC[C@]4(C)[C@H]3CC[C@@]21C", "inhibition": "84.3%"}
{"MOLECULE": "C[C@]12CCC(c3nnn[nH]3)=CC1=CC[C@@H]1[C@@H]2CC[C@]2(C)NC(=O)CC[C@@H]12", "inhibition": "90.6%"}

Next item in the queue.
Entry CC(=O)C1CC[C@H]2[C@@H]3CC=C4C=C(c5nnn[nH]5)CC[C@]4(C)[C@H]3CC[C@]12C (stereo partly specified) — recorded inhibition = 100%

----------
target: 3-oxo-5-alpha-steroid 4-dehydrogenase 2 (Homo sapiens) (UniProt P31213); experiment: Inhibition of human 5alpha-2 reductase expressed in HEK293 cells assessed as suppression of conversion of [3]androstenedione at 10 uM incubated for 30 mins by radioactivity-based HPLC analysis; assay type: cell-based
METRIC: inhibition (%)
All answers are understood in %, so give the number only.

Some solved cases for reference:
{"MOLECULE": "C[C@]12CC[C@H]3[C@@H](CC=C4C=C(c5nnn[nH]5)CC[C@@H]43)[C@@H]1CCC2=O", "UNITS": "%", "REPORTED RESULT": 79.7}
{"MOLECULE": "C[C@]12CCC(c3nnn[nH]3)=CC1=CC[C@@H]1[C@@H]2CC[C@]2(C)NC(=O)CC[C@@H]12", "UNITS": "%", "REPORTED RESULT": 100}
{"MOLECULE": "CC(=O)C1CC[C@H]2[C@@H]3CC=C4C=C(c5nnn[nH]5)CC[C@]4(C)[C@H]3CC[C@]12C (stereo partly specified)", "UNITS": "%", "REPORTED RESULT": 100}
{"MOLECULE": "CN1C(=O)CC[C@H]2[C@@H]3CC=C4C=C(c5nnn[nH]5)CC[C@]4(C)[C@H]3CC[C@@]21C", "UNITS": "%", "REPORTED RESULT": 91.2}
{"MOLECULE": "C[C@]12CCC(c3nnn[nH]3)=CC1=CC[C@@H]1[C@@H]2CC[C@]2(C)C(=O)CC[C@@H]12", "UNITS": "%", "REPORTED RESULT": 100}

Next item in the queue.
Field inhibition (3-oxo-5-alpha-steroid 4-dehydrogenase 2 (Homo sapiens) (UniProt P31213)), entry C=CCN1C(=O)CC[C@H]2[C@@H]3CC=C4C=C(c5nnn[nH]5)CC[C@]4(C)[C@H]3CC[C@@]21C : 100

----------
Target: 3-oxo-5-alpha-steroid 4-dehydrogenase 1 (Homo sapiens, UniProt P18405)
Sequence (P18405 whole entry): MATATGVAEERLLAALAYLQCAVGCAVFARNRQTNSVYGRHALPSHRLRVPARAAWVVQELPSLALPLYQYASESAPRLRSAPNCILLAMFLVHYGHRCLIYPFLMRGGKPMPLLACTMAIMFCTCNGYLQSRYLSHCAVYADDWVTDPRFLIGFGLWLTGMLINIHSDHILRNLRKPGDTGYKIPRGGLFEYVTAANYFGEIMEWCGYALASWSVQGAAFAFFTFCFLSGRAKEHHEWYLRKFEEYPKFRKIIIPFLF
Experiment: Inhibition of human 5alpha-1 reductase expressed in HEK293 cells assessed as suppression of conversion of [3]androstenedione incubated for 30 mins by radioactivity-based HPLC analysis
METRIC: IC50 (nM)
All answers are understood in nM, so give the number only.

Entry CC(=O)C1CC[C@H]2[C@@H]3CC=C4C=C(c5nnn[nH]5)CC[C@]4(C)[C@H]3CC[C@]12C (stereo partly specified) — recorded IC50 = 547

----------
Recorded Activity values for a group of compounds are listed next.
test system: Rattus norvegicus; assay: Effect on organ weight in male wistar rat assessed testis tissue weight per 100g at 5ml/kg, po qd measured on 15th day after 24 hrs of last dose (Rvb=1054.099+/- 55.648 mg/100g); type: ADME, organism-based; conditions: in vivo
All answers are understood in mg, so give the number only.

Some solved cases for reference:
{"COMPOUND": "C[C@]12CC[C@H]3[C@@H](CCC4=CC(=O)CC[C@@]43C)[C@@H]1CC[C@@H]2O", "TARGET SYSTEM": "Rattus norvegicus", "Activity, mg": 1108.457}
{"COMPOUND": "C[C@]12CC[C@H]3[C@@H](CC=C4C=C(c5nnn[nH]5)CC[C@@H]43)[C@@H]1CCC2=O", "TARGET SYSTEM": "Rattus norvegicus", "Activity, mg": 1350.787}
{"COMPOUND": "CC(C)(C)NC(=O)[C@H]1CC[C@H]2[C@@H]3CC[C@H]4NC(=O)C=C[C@]4(C)[C@H]3CC[C@]12C [FINASTERIDE]", "TARGET SYSTEM": "Rattus norvegicus", "Activity, mg": 1058.022}
{"COMPOUND": "CC(=O)C1CC[C@H]2[C@@H]3CC=C4C=C(c5nnn[nH]5)CC[C@]4(C)[C@H]3CC[C@]12C (stereo partly specified)", "TARGET SYSTEM": "Rattus norvegicus", "Activity, mg": 844.538}
{"COMPOUND": "CN1C(=O)CC[C@H]2[C@@H]3CC=C4C=C(c5nnn[nH]5)CC[C@]4(C)[C@H]3CC[C@@]21C", "TARGET SYSTEM": "Rattus norvegicus", "Activity, mg": 1233.129}

Field Activity (Rattus norvegicus), entry C[C@]12C=CC(=O)N[C@@H]1CC[C@@H]1[C@@H]2CC[C@]2(C)[C@@H](C(=O)Nc3cc(C(F)(F)F)ccc3C(F)(F)F)CC[C@@H]12 [DUTASTERIDE] : 1067.385

----------
test system: Rattus norvegicus; assay: Increase in body weight gain in male wistar rat at 5ml/kg, po qd measured on 15th day after 24 hrs of last dose (Rvb=9.412+/-1.632g%); type: ADME, organism-based; details: in vivo
METRIC: Activity (g%)
All answers are understood in g%, so give the number only.

{"MOLECULE": "C[C@]12C=CC(=O)N[C@@H]1CC[C@@H]1[C@@H]2CC[C@]2(C)[C@@H](C(=O)Nc3cc(C(F)(F)F)ccc3C(F)(F)F)CC[C@@H]12 [DUTASTERIDE]", "Activity, g%": 11.914}
{"MOLECULE": "CC(C)(C)NC(=O)[C@H]1CC[C@H]2[C@@H]3CC[C@H]4NC(=O)C=C[C@]4(C)[C@H]3CC[C@]12C [FINASTERIDE]", "Activity, g%": 8.032}

Next item in the queue.
Entry CC(=O)C1CC[C@H]2[C@@H]3CC=C4C=C(c5nnn[nH]5)CC[C@]4(C)[C@H]3CC[C@]12C (stereo partly drawn) — recorded Activity = 8.328
